- system_tested: Chromo domain-containing protein 1 (Saccharomyces cerevisiae (strain ATCC 204508 / S288c) (Baker's yeast))
- experiment_description: ScCHD-1 Enzyme Inhibition Assay
- Type: functional
- Design: scale not given: in the data most compounds retested in dose-response had high values
- test_settings: 30 µM
measured_attribute: Percent Effect (%)
One number for each entry, in %.

CC(=O)NCCc1ccc(C(=O)N2CCCC2c2cnn(C)c2)cc1 (stereo not drawn); -8.59
O=C1N(Cc2ccc(F)c(F)c2)CCCC12CCN(C1CCSCC1)C2 (stereo not drawn); 0.965
COc1ccc(OCCNCCn2cccn2)cc1; -1.82
Cc1nc(C)n(CC2CCCN2CCOc2ccc(C#N)cc2)n1 (stereo not drawn); -5.17
Cn1cnnc1C1CCCN(C(=O)NCCOc2ccccc2)C1 (stereo not drawn); -12
Cn1cc(CN2CCCn3cnc(CN4CCCC4=O)c3C2)cn1; -4.19
CCCS(=O)(=O)NC(C)C(=O)NCc1ccc(N2CCCC2)nc1 (stereo not drawn); -7.91
Cn1nc2c(cc1=O)CN(Cc1nc(-c3cccs3)no1)CC2; -8.34

# per-item lookup of Percent Effect; items listed below
1. Cc1ccc2cnn(CCC(=O)NCc3c(C)nn(C)c3C)c2c1
2. Cc1ccc(NC2CCN(C(=O)c3c(C)noc3C)CC2)nn1
3. CS(=O)(=O)N1CCC(Oc2cnccn2)CC1

-1.97
-7.4
-8.42
